tested-on: Ba/F3-FL-EGFR-L858R (Homo sapiens, UniProt P00533, L858R, cells depend on it)
Sequence (P00533 whole entry L858R): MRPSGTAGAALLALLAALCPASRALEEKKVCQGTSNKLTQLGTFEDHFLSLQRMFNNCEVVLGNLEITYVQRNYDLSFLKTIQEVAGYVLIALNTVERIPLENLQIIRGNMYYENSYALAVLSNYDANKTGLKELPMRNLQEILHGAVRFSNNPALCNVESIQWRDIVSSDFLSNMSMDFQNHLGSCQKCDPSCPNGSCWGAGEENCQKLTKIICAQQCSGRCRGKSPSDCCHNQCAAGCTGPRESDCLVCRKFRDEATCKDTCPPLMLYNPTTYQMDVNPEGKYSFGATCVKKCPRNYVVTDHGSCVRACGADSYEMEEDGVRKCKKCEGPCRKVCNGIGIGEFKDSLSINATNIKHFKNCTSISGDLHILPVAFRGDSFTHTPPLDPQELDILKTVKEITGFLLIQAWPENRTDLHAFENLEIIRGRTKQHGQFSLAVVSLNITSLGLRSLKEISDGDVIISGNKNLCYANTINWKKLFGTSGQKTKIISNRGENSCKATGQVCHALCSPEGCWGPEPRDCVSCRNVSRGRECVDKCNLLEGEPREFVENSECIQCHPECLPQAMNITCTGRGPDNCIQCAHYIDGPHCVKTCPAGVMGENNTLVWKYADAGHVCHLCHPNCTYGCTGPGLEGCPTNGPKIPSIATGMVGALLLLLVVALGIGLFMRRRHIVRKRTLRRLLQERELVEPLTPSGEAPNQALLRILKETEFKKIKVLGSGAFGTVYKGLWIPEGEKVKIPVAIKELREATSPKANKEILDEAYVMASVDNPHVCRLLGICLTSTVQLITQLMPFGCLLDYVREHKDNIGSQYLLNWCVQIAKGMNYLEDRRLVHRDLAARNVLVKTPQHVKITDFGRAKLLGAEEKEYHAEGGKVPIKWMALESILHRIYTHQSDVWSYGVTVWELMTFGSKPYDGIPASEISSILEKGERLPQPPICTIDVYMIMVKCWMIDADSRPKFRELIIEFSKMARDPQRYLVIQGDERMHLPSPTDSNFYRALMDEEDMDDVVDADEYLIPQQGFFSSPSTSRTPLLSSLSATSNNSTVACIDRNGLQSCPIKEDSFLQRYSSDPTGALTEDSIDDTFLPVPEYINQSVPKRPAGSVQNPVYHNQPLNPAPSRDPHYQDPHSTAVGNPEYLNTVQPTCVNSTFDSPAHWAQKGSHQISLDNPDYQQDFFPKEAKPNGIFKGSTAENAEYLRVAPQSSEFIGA
procedure-text: CellTiter-Glo proliferation, Ba/F3-FL-EGFR-L858R
Type: cell-based
experimental-parameters: 72 hours, read-out: Ba/F3-FL-EGFR-L858R IC50/nM
measured-endpoint: GI50 (nM)

Some entries whose results are on file:
- compound: "CC(C)c1ccc(N2CC(CS(C)(=O)=O)C2)c2cnc(Nc3ccnc(-c4cnn(S(=O)(=O)C5CCC5)c4)n3)cc12 [Compound H13]"
  tested-on: "Ba/F3-FL-EGFR-L858R (Homo sapiens, UniProt P00533, L858R, cells depend on it)"
  GI50 (nM): 44
- compound: "CC(C)c1ccc(N2CC(NS(C)(=O)=O)C2)c2cnc(Nc3ccnc(N4CCC(O)C(C)(F)C4)n3)cc12 (centres unmarked) [Compound P46]"
  tested-on: "Ba/F3-FL-EGFR-L858R (Homo sapiens, UniProt P00533, L858R, cells depend on it)"
  GI50 (nM): 208
- compound: "CO[C@H]1CCN(c2nccc(Nc3cc4c(C(C)C)ccc(N5C[C@H](N(C)S(C)(=O)=O)[C@H]5C)c4cn3)n2)C[C@H]1F [Compound P40b]"
  tested-on: "Ba/F3-FL-EGFR-L858R (Homo sapiens, UniProt P00533, L858R, cells depend on it)"
  GI50 (nM): 25
- compound: "CC(C)c1ccc(N2CC(CC(N)=O)C2)c2cnc(Nc3ccnc(-c4cnn(S(=O)(=O)C5CC5)c4)n3)cc12 [Compound H4]"
  tested-on: "Ba/F3-FL-EGFR-L858R (Homo sapiens, UniProt P00533, L858R, cells depend on it)"
  GI50 (nM): 46
- compound: "CC(C)c1ccc(N2C[C@H](N(C)S(C)(=O)=O)[C@H]2C)c2cnc(Nc3ccnc(-c4cnn(S(=O)(=O)C5CC5)c4)n3)cc12 [Compound H23]"
  tested-on: "Ba/F3-FL-EGFR-L858R (Homo sapiens, UniProt P00533, L858R, cells depend on it)"
  GI50 (nM): 3.7
- compound: "COC1CCN(c2nccc(Nc3cc4c(cn3)c(N3CC(CS(C)(=O)=O)C3)cc(=O)n4C(C)C)n2)CC1F (centres unmarked) [Compound P24]"
  tested-on: "Ba/F3-FL-EGFR-L858R (Homo sapiens, UniProt P00533, L858R, cells depend on it)"
  GI50 (nM): 128

(P) CCN(C1CN(c2ccc(C(C)C)c3cc(Nc4ccnc(N5CCC(OC)C(F)C5)n4)ncc23)C1)S(C)(=O)=O (centres unmarked) [Compound P31]
(Q) COC1CCN(c2nccc(Nc3cc4c(C(C)C)ccc(N5CC(NS(C)(=O)=O)C5)c4cn3)n2)CC1F (centres unmarked) [Compound P29]
(R) CC(C)c1ccc(N2CC(CC(N)=O)C2)c2cnc(Nc3ccnc(N4CCC(O)C(F)C4)n3)cc12 (centres unmarked) [Compound P7]
(S) CC(C)c1ccc(N2C[C@H](N(C)S(C)(=O)=O)[C@H]2C)c2cnc(Nc3ccnc(N4CC[C@@H](O)[C@@H](F)C4)n3)cc12 [Compound P41a]
Problem: Arrange these 4 compounds in increasing order of GI50. Thanks in advance for listing the labels in the requested order.
Solution: S, Q, P, R

(1) CC(C)c1ccc(N2CC3(CC(S(C)(=O)=O)C3)C2)c2cnc(Nc3ccnc(-c4cnn(S(=O)(=O)C5CC5)c4)n3)cc12 [Compound P3]
(2) [2H]C([2H])([2H])N([C@H]1CN(c2ccc(C(C)C)c3cc(Nc4ccnc(N5CCC(OC)C(F)C5)n4)ncc23)[C@@H]1C)S(C)(=O)=O (some centres unmarked) [Compound P42]
(3) CC(C)c1ccc(N2CC(NS(C)(=O)=O)C2)c2cnc(Nc3ccnc(N4CCC(O)C(F)(F)C4)n3)cc12 (centres unmarked) [Compound P30]
Problem: Kindly order the items shown according to GI50, from the highest value down. Thanks in advance for listing the labels in the requested order.
Solution: 3, 1, 2
